Molecular target: Serotonin 3 (5-HT3) receptor (Rattus norvegicus, UniProt P35563+Q9JJ16)
Sequence (P35563 whole entry): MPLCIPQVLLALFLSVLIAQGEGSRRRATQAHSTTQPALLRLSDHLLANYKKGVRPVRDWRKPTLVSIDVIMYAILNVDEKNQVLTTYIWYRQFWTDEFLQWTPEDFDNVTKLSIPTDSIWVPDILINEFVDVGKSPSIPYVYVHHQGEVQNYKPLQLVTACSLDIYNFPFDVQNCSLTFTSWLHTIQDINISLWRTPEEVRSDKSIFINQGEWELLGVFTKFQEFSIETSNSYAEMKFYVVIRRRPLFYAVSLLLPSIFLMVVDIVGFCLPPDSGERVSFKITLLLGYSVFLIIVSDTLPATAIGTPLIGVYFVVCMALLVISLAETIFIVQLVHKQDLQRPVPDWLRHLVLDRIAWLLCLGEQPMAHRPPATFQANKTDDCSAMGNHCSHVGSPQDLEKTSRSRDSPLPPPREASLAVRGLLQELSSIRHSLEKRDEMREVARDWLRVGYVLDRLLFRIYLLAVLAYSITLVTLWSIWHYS
Sequence (Q9JJ16 whole entry): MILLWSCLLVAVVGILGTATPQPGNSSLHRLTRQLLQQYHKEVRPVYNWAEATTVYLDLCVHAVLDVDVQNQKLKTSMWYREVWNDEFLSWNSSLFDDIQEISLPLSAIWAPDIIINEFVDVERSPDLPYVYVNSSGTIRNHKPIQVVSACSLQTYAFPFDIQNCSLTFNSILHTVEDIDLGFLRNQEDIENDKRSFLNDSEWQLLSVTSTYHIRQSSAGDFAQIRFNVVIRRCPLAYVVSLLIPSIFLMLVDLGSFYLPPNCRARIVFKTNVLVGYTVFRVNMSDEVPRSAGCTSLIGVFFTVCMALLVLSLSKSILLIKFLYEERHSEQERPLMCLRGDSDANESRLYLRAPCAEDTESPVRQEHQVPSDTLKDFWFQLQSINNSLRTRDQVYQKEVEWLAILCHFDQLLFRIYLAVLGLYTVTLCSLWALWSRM
Assay: Binding affinity at 5-hydroxytryptamine 3 receptor in rat entorhinal cortex by [3H]BRL-43694 displacement.
I'd appreciate it if you could supply pKi values for the items below.
Just so you know, pKi here is -log10 of the concentration in molar units; reply with that number alone.

Let me know recorded pKi for COc1ccc2ccccc2c1C(=O)NC1CN2CCC1CC2 (stereo not drawn) , thanks.
6.47

Look up and state reported pKi for `O=C(N[C@H]1CN2CCC1CC2)c1ccccc1`
5.72

Give pKi for `O=C(N[C@@H]1CN2CCC1CC2)c1ccccc1`
6.83

Give reported pKi value for `CCCOc1ccccc1C(=O)N[C@@H]1CN2CCC1CC2`
7.95

Recall and state the measured pKi for `CCOc1ccccc1C(=O)N[C@H]1CN2CCC1CC2` .
7.00

Assign pKi to the following record: `COc1ccccc1C(=O)N[C@H]1CN2CCC1CC2`
6.39

Supply measured pKi of `CCCOc1ccccc1C(=O)N[C@H]1CN2CCC1CC2` in your reply.
7.15

Please give measured pKi of the following entry: `CCOc1ccccc1C(=O)N[C@@H]1CN2CCC1CC2`
7.72

Return the recorded pKi value; entry: `O=C1c2ccc3ccccc3c2C(=O)N1[C@H]1CN2CCC1CC2`
8.22

Identify the reported pKi for the following entry. `O=C1c2ccc3ccccc3c2C(=O)N1[C@@H]1CN2CCC1CC2`
6.92

Consider the compound Nc1ccc2cccc3c2c1C(=O)N(C1CN2CCC1CC2)C3=O (stereo not drawn) . State its measured pKi.
9.82

Read the entry `COc1ccccc1C(=O)N[C@@H]1CN2CCC1CC2` and write its reported pKi.
7.63

Query pKi for `O=C(N[C@@H]1CN2CCC1CC2)c1cccc2ccccc12`
7.49
